Could you please report measured pIC50 for the items listed next?
- System: RS4; 11Bcl-2-G101V cells
- assayText: CellTiter-Glo (CTG) cell viability assay in RS4;11-Bcl-2-G101V cells
- Format: cell-based
- measurementSetup: 72 h, 10% FBS, 3 days
Schema: pIC50 number; meaning minus log10 of the concentration expressed in molar units.

Any idea what its pIC50 is? The molecule is `CC1(C)CCC(CN2CCN(c3ccc(C(=O)NS(=O)(=O)c4ccc(NC[C@H]5CC[C@](C)(O)CC5)c([N+](=O)[O-])c4)c(Oc4cnc5[nH]ccc5c4)c3)CC2)=C(c2cc(-c3c(Cl)cc(C(C)(C)O)cc3Cl)cs2)C1`
6.44

Any idea what its pIC50 is? The molecule is `CC1(C)CCC(CN2CCN(c3ccc(C(=O)NS(=O)(=O)c4ccc(NC[C@H]5CC[C@](C)(O)CC5)c([N+](=O)[O-])c4)c(Oc4cnc5[nH]ccc5c4)c3)CC2)=C(c2cc(-c3c(F)cc(C(C)(C)CO)cc3F)cs2)C1`
6.64

Any idea what its pIC50 is? The molecule is `CC1(C)CCC(CN2CCN(c3ccc(C(=O)NS(=O)(=O)c4ccc(NC[C@H]5CC[C@](C)(O)CC5)c([N+](=O)[O-])c4)c(Oc4cnc5[nH]ccc5c4)c3)CC2)=C(c2cc(-c3ccc(F)c(F)c3)cs2)C1`
5.94

Any idea what its pIC50 is? The molecule is `Cc1ccsc1C1=C(CN2CCN(c3ccc(C(=O)NS(=O)(=O)c4ccc(NCC5CCOCC5)c([N+](=O)[O-])c4)c(Oc4cnc5[nH]ccc5c4)c3)CC2)CCC(C)(C)C1`
5.49

Any idea what its pIC50 is? The molecule is `CC1(C)CCC(CN2CCN(c3ccc(C(=O)NS(=O)(=O)c4ccc(NC[C@H]5COCCO5)c([N+](=O)[O-])c4)c(Oc4cnc5[nH]ccc5c4)c3)CC2)=C(c2cc(CN3CCN(C4COC4)CC3)cs2)C1`
6.06

Any idea what its pIC50 is? The molecule is `CC1(C)CCC(CN2CCN(c3ccc(C(=O)NS(=O)(=O)c4ccc(NC[C@H]5COCCO5)c([N+](=O)[O-])c4)c(Oc4cnc5[nH]ccc5c4)c3)CC2)=C(c2cc(-c3ccc(F)cc3)cs2)C1`
6.20

Any idea what its pIC50 is? The molecule is `CC1(C)CCC(CN2CCN(c3ccc(C(=O)NS(=O)(=O)c4ccc(NC[C@H]5CC[C@](C)(O)CC5)c([N+](=O)[O-])c4)c(Oc4cnc5[nH]ccc5c4)c3)CC2)=C(c2cc(-c3ccc(F)c(F)c3F)cs2)C1`
6.64

Any idea what its pIC50 is? The molecule is CC1(C)CCC(CN2CCN(c3ccc(C(=O)NS(=O)(=O)c4ccc(NC[C@H]5CC[C@](C)(O)CC5)c([N+](=O)[O-])c4)c(Oc4cnc5[nH]ccc5c4)c3)CC2)=C(c2cc(-c3c(F)cc(C(C)(O)C4CC4)cc3F)cs2)C1 (stereo partly drawn)
6.52

Any idea what its pIC50 is? The molecule is `CC1(C)CCC(CN2CCN(c3ccc(C(=O)NS(=O)(=O)c4ccc(NC[C@H]5CC[C@](C)(O)CC5)c([N+](=O)[O-])c4)c(Oc4cnc5[nH]ccc5c4)c3)CC2)=C(c2cc(-c3cc(F)cc(C#N)c3)cs2)C1`
5.94
